Value source: the antibiotic and cytotoxicity screens of Wong et al. (2023)

System: HSkMC
experimental_details: cytotoxicity call (relative viability < 0.9)
measurement_conditions: 10 µM
Among all 39,000 compounds or so, about 1,500 (3.8%) were called active. The sample as a whole holds a higher share of actives than the screen did.
Classes used: active, inactive

>>> classification("COc1ccc(NC(=O)Nc2cccc3c2O[C@H](CN(C)Cc2ccc(-c4ccccc4)cc2)[C@H](C)CN([C@H](C)CO)C3=O)cc1")
"active"
>>> classification("C[C@@H]1CN([C@@H](C)CO)C(=O)c2cc(N(C)C)ccc2O[C@H]1CN(C)S(C)(=O)=O")
"inactive"
>>> classification("C/C=C/c1ccc2c(c1)O[C@H](CN(C)Cc1ccc(C(=O)O)cc1)[C@H](C)CN([C@@H](C)CO)S2(=O)=O")
"inactive"
>>> classification("C[C@@H]1CN([C@@H](C)CO)C(=O)Cc2cc(NC(=O)CCN3CCOCC3)ccc2O[C@H]1CN(C)C(=O)NC1CCCCC1")
"inactive"
>>> classification("Cc1cnc2c(c1NCCN(C)C)c(=O)n(C)c(=O)n2C")
"inactive"
>>> classification("O=C(C[C@@H]1CC[C@@H]2[C@H](COC[C@H](O)CN2S(=O)(=O)c2ccccc2F)O1)N1CCC(Cc2ccccc2)CC1")
"inactive"
>>> classification("C[C@H](CO)N1C[C@H](C)[C@@H](CN(C)Cc2ccc(C(=O)O)cc2)OCCCC[C@H](C)Oc2ccc(NC(=O)CCC(F)(F)F)cc2C1=O")
"inactive"

----------
Test system: HSkMC
experimental_details: cytotoxicity call (relative viability < 0.9)
measurement_conditions: 10 µM
The campaign covered roughly 39,000 compounds. About 1,500 (3.8%) were called active. Shown is part of a subset that was picked to be rich in actives.
Labels: active, inactive

>>> classification("Cc1ccc(S(=O)(=O)N(C)C[C@H]2OCCCC[C@H](C)Oc3ccc(NS(=O)(=O)c4ccc(F)cc4)cc3C(=O)N([C@@H](C)CO)C[C@@H]2C)cc1")
"inactive"
>>> classification("Cc1ccc(S(=O)(=O)Nc2ccc3c(c2)C(=O)N([C@@H](C)CO)C[C@H](C)[C@@H](CN(C)S(=O)(=O)c2ccc(F)cc2)OCCCC[C@@H](C)O3)cc1")
"inactive"
>>> classification("C[C@@H]1CN([C@H](C)CO)C(=O)c2cc(NC(=O)Nc3ccccc3)ccc2O[C@@H]1CN(C)Cc1ccc(-c2ccccc2)cc1")
"inactive"
>>> classification("Cc1ccc(S(=O)(=O)Nc2ccc3c(c2)C(=O)N([C@H](C)CO)C[C@@H](C)[C@H](CN(C)S(=O)(=O)c2ccc(F)cc2)OCCCC[C@@H](C)O3)cc1")
"inactive"
>>> classification("C[C@H](CO)N1C[C@H](C)[C@@H](CN(C)Cc2ccc(-c3ccccc3)cc2)Oc2ccc(NC(=O)Nc3ccccc3)cc2C1=O")
"inactive"
>>> classification("C[C@@H]1CN([C@H](C)CO)C(=O)c2cc(NC(=O)Nc3ccc(F)cc3)ccc2O[C@H]1CN(C)Cc1ccc(-c2ccccc2)cc1")
"active"

----------
System: HSkMC
experimental_details: cytotoxicity call (relative viability < 0.9)
measurement_conditions: 10 µM
The campaign covered roughly 39,000 compounds. About 1,500 (3.8%) were called active. The sample holds actives, similar compounds and a random draw of the others, so the mix is not that of the screen.
Labels: Yes = active, No = inactive

>>> classification("COc1ccc(CN(C)C[C@@H]2OCCCC[C@H](C)Oc3ccc(NC(=O)CCC(F)(F)F)cc3C(=O)N([C@@H](C)CO)C[C@@H]2C)cc1")
"No"
>>> classification("O=C(CCC(=O)N1CCOCC1)Nc1c(F)c(F)nc(N2CCOCC2)c1F")
"No"
>>> classification("C[C@@H]1CN([C@H](C)CO)C(=O)Cc2cc(NS(=O)(=O)c3ccc(F)cc3)ccc2O[C@@H]1CN(C)Cc1ccc(Oc2ccccc2)cc1")
"Yes"
>>> classification("C[C@@H]1CN([C@@H](C)CO)C(=O)Cc2cc(NS(=O)(=O)c3ccc(F)cc3)ccc2O[C@H]1CN(C)Cc1ccc(Oc2ccccc2)cc1")
"No"
>>> classification("C[C@H]1CN([C@@H](C)CO)C(=O)Cc2cc(NS(=O)(=O)c3ccc(F)cc3)ccc2O[C@H]1CN(C)Cc1ccc(Oc2ccccc2)cc1")
"Yes"
>>> classification("C[C@@H]1CN([C@H](C)CO)C(=O)Cc2cc(NS(=O)(=O)c3ccc(F)cc3)ccc2O[C@H]1CN(C)Cc1ccc(Oc2ccccc2)cc1")
"Yes"
>>> classification("CCCn1c(=O)c(C#N)cn(C2CC2)c1=O")
"No"

----------
Test system: HSkMC
experimental_details: cytotoxicity call (relative viability < 0.9)
measurement_conditions: 10 µM
In all, about 39,000 compounds went through this assay and about 1,500 (3.8%) were called active. This excerpt belongs to a sample that is enriched for actives.
Classes used: class 1 (active), class 0 (inactive)

>>> classification("C[C@H]1CN([C@@H](C)CO)C(=O)Cc2cc(NC(=O)Nc3cccc4ccccc34)ccc2O[C@@H]1CN(C)CC1CCCCC1")
"class 1"
>>> classification("C[C@H]1CN([C@@H](C)CO)C(=O)Cc2cc(NC(=O)c3ccncc3)ccc2O[C@@H]1CN(C)S(=O)(=O)c1cn(C)cn1")
"class 0"
>>> classification("CO[C@H]1CN(C)C(=O)c2ccc(NC(=O)Nc3ccc(Cl)cc3)cc2OC[C@@H](C)N(C(=O)Nc2c(C)noc2C)C[C@H]1C")
"class 0"
>>> classification("CS(=O)(=O)N1CC[C@]2(COCc3cnc(N4CCOCC4)nc32)C1")
"class 0"
>>> classification("C[C@@H]1CN([C@H](C)CO)C(=O)Cc2cc(NC(=O)Nc3cccc4ccccc34)ccc2O[C@H]1CN(C)CC1CCCCC1")
"class 0"
>>> classification("C[C@@H]1CN([C@@H](C)CO)C(=O)Cc2cc(NC(=O)Nc3cccc4ccccc34)ccc2O[C@H]1CN(C)CC1CCCCC1")
"class 0"
>>> classification("Cc1noc(C)c1S(=O)(=O)Nc1ccc2c(c1)C(=O)N([C@H](C)CO)C[C@@H](C)[C@@H](CN(C)CC1CCCCC1)OCCCC[C@@H](C)O2")
"class 0"
>>> classification("COCCOC(=O)N1C(=O)[C@@]2(c3cc(C#Cc4ccc(OC)cc4)ccc31)[C@H](c1ccccc1OCCO)N1[C@H](c3ccccc3)[C@H](c3ccccc3)OC(=O)[C@H]1[C@@H]2C(=O)N1CCN(c2ncccn2)CC1")
"class 0"
>>> classification("CCNc1cc(=N)n(CC)c2n[nH]c(N)c12")
"class 0"
>>> classification("C[C@H]1CN([C@@H](C)CO)C(=O)Cc2cc(NC(=O)Nc3cccc4ccccc34)ccc2O[C@H]1CN(C)CC1CCCCC1")
"class 1"
>>> classification("C[C@@H]1CN([C@H](C)CO)C(=O)c2cc(NC(=O)Nc3ccc4c(c3)OCO4)ccc2O[C@@H](C)CCCCO[C@@H]1CN(C)Cc1ccc(Cl)c(Cl)c1")
"class 0"
>>> classification("C[C@H](CO)N1C[C@H](C)[C@@H](CN(C)C(=O)NC2CCCCC2)Oc2ccc(NC(=O)CCN3CCOCC3)cc2C1=O")
"class 0"
>>> classification("C[C@H](CO)N1C[C@H](C)[C@H](CN(C)CC2CCCCC2)Oc2ccc(NC(=O)Nc3cccc4ccccc34)cc2CC1=O")
"class 0"
>>> classification("CS(=O)(=O)N1CCc2c(-c3cnc(N)nc3)nc(N3CCOCC3)nc21")
"class 1"
>>> classification("O=C1C=CC(=O)N1")
"class 1"

----------
Test system: HSkMC (human skeletal muscle cells)
experimental_details: cytotoxicity call (relative viability < 0.9)
measurement_conditions: 10 µM
Screen size: about 39,000 compounds; about 1,500 (3.8%) were called active. Only a selection was taken, and actives are over-represented in it overall.
Classes used: YES = active, NO = inactive

>>> classification("C[C@H](CO)N1C[C@H](C)[C@H](CN(C)C(=O)c2ccc3c(c2)OCO3)Oc2ncc(C#CCN(C)C)cc2C1=O")
"NO"
>>> classification("C[C@H]1CN([C@@H](C)CO)C(=O)c2cc(NC(=O)C3CCCCC3)ccc2O[C@@H]1CN(C)Cc1ccc(Cl)c(Cl)c1")
"NO"
>>> classification("C=CCOC(=O)[C@H]1[C@@H]2C(=O)O[C@@H](c3ccccc3)[C@@H](c3ccccc3)N2[C@@H](c2ccc(OCCOC(=O)[C@H]3C[C@H]4C(=O)N[C@@H](Cc5ccccc5)C(=O)N4[C@H]3c3cccc(OCCO)c3)cc2)[C@]12C(=O)Nc1ccccc12")
"NO"
>>> classification("CO[C@@H]1CN(C)C(=O)c2ccc(NS(=O)(=O)c3cccc(C)c3)cc2OC[C@@H](C)N(Cc2cc(F)ccc2F)C[C@H]1C")
"NO"
>>> classification("C[C@@H]1CN([C@H](C)CO)C(=O)Cc2cc(NS(=O)(=O)c3ccc(F)cc3)ccc2O[C@H]1CN(C)Cc1ccc(-c2ccccc2)cc1")
"YES"
>>> classification("C[C@@H]1CN([C@@H](C)CO)S(=O)(=O)c2ccc(-c3cncnc3)cc2O[C@H]1CN(C)C(=O)c1ccc2c(c1)OCO2")
"NO"
>>> classification("C[C@@H]1CN([C@H](C)CO)C(=O)Cc2cc(NS(=O)(=O)c3ccc(F)cc3)ccc2O[C@@H]1CN(C)Cc1ccc(-c2ccccc2)cc1")
"YES"
>>> classification("COc1ncc(-c2nc(N3CCOCC3)nc3c(CN4CCC(C(C)(C)O)CC4)cc(F)cc23)cc1NS(C)(=O)=O")
"NO"
>>> classification("COc1ccc(S(=O)(=O)N(C)C[C@H]2Oc3ccc(NC(=O)C4CC4)cc3CC(=O)N([C@H](C)CO)C[C@@H]2C)cc1")
"NO"
>>> classification("Cc1noc(C)c1NC(=O)Nc1ccc2c(c1)C(=O)N([C@@H](C)CO)C[C@@H](C)[C@H](CN(C)Cc1ccccc1)OCCCC[C@@H](C)O2")
"NO"
>>> classification("C[C@@H]1CN([C@@H](C)CO)S(=O)(=O)c2ccc(C#CCC3CCCC3)cc2O[C@@H]1CN(C)C(=O)c1cnccn1")
"NO"
>>> classification("C[C@@H]1CN([C@@H](C)CO)C(=O)c2cc(NC(=O)NC3CCCCC3)ccc2O[C@@H](C)CCCCO[C@H]1CN(C)C(=O)Cc1ccccc1")
"NO"
>>> classification("COc1ccc(S(=O)(=O)Nc2ccc3c(c2)C(=O)N([C@@H](C)CO)C[C@H](C)[C@H](CN(C)Cc2ccncc2)O3)cc1")
"NO"
